Where these numbers come from: patent US20110190503A1

# experimental-system: recombinant human LTA4 hydrolase (rhLTA4H) (Homo sapiens, UniProt P09960)
# Construct: made in house; host or cells: Spodoptera frugiperda (Sf-9) cells, recombinant baculovirus (pFastBac1)
# Sequence (P09960 whole entry): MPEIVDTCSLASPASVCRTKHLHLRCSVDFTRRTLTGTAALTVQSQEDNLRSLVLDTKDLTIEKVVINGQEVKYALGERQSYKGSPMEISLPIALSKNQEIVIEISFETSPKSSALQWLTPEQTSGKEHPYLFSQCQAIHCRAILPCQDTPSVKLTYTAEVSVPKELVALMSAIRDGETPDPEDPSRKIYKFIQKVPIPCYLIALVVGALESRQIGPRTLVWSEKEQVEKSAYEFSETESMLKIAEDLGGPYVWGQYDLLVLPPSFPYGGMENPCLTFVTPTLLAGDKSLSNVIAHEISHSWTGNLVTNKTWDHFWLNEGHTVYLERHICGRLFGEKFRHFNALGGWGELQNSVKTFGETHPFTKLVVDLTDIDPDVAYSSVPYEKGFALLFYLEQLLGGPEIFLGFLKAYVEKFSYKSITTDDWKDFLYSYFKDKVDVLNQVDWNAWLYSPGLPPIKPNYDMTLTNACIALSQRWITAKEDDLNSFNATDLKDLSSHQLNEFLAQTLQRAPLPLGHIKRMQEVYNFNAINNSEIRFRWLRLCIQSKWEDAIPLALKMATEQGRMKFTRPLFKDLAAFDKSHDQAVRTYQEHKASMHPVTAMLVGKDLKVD
# assay-comment: Recombinant human LTA4 hydrolase assay for LTA4 hydrolase inhibitor activity
# Format: biochemical
# condition-label: rhLTA4H, LTA4 substrate, LTB4 by immunoassay; single determination or average; read-out: IC50
Structures can show the parent of a compound that is named as a salt.
Kindly apply the following: yes if IC50 is less than 30 nM, no in every other case.

(Q) Lab note: confirm whether the reported IC50 for this compound is below 30 nM, equality not counting. compound: CC(=O)N1CC2CN(Cc3ccc(Oc4nc5ncccc5s4)cc3)CC2C1 (stereo not drawn) [Example 276]
(A) yes

(Q) Problem: For the compound c1cc2sc(Oc3ccc(CCN4CCCC4)cc3)nc2cn1 [Example 221] , is IC50 under 30 nM?
(A) no

(Q) Check if IC50 falls below 30 nM for OC1(c2cccc(C(F)(F)F)c2)CCN(CCc2ccc(Oc3nc4ncccc4s3)cc2)CC1 [Example 64] .
(A) yes

(Q) # check: IC50 < 30 nM for O=C(O)CCN1CCN(CCc2ccc(Oc3nc4ncccc4s3)cc2)CC1 [Example 225, hydrochloride]
(A) yes

(Q) Hello, I'm reviewing records and need to know if IC50 of CC(=O)N[C@H]1C[C@H]2CC[C@@H](C1)N2Cc1ccc(Oc2nc3ccncc3s2)cc1 [Example 115] is below 30 nM. Could you check?
(A) no

(Q) Answer whether the compound O[C@@H]1CCN(Cc2ccc(Oc3nc4ncccc4s3)cc2)C1 [Example 94] has IC50 strictly less than 30 nM
(A) yes

(Q) Hello, is IC50 of the following compound strictly smaller than 30 nM? c1cnc(OC2CCN(CCOc3ccc(Oc4nc5ncccc5s4)cc3)CC2)nc1 [Example 1]
(A) yes

(Q) Criterion: IC50 strictly below 30 nM. Is it met by O=C(O)C1CCN(Cc2ccc(Oc3nc4cccnc4s3)cc2)CC1 [Example 132] ?
(A) no

(Q) I wonder whether c1ccc(CC2CCN(CCOc3ccc(Oc4nc5nccnc5s4)cc3)CC2)cc1 [Example 23] has IC50 below 30 nM. Can you tell?
(A) no

(Q) Given the entry O=C1CCCN1C1CCN(Cc2ccc(Oc3nc4ncccc4s3)cc2)CC1 [Example 83] , would its reported IC50 be below 30 nM?
(A) yes

(Q) Here's an entry: CCOC(=O)C1CCN(Cc2ccc(Oc3nc4ncccc4s3)cc2)CC1 [Example 130] . Is its IC50 below 30 nM?
(A) yes

(Q) A record lists OC1CCN(Cc2ccc(Oc3nc4ncccc4s3)cc2)CC1 [Example 137] . Is its IC50 below 30 nM?
(A) yes

(Q) Please check: IC50 for FC(F)(F)C1CCN(CCOc2ccc(Oc3nc4cnccc4s3)cc2)CC1 [Example 164] , strictly under 30 nM or not?
(A) no

(Q) Please indicate whether the reported IC50 of NC(=O)N1C[C@@H]2CC[C@H]1CN2Cc1ccc(Oc2nc3ncccc3s2)cc1 [Example 293, formate] is strictly below 30 nM.
(A) yes

(Q) hey, is IC50 for O=C(O)C1CCN(Cc2ccc(Oc3nc4ncccc4s3)cc2)CC1 [Example 131] lower than 30 nM or not?
(A) yes

(Q) Here's an entry: OC1(c2ccccn2)CCN(CCOc2ccc(Oc3nc4ncccc4s3)cc2)CC1 [Example 5] . Is its IC50 below 30 nM?
(A) yes

(Q) # check: IC50 < 30 nM for CN(Cc1ccc(Oc2nc3ccncc3s2)cc1)C1CCCCC1 [Example 175]
(A) no

(Q) Is it true that IC50 reported for CC(=O)N[C@H]1C[C@H]2CC[C@@H](C1)N2CCc1ccc(Oc2nc3cccnc3s2)cc1 [Example 52] is less than 30 nM?
(A) yes

====

# experimental-system: recombinant human LTA4 hydrolase (rhLTA4H) (Homo sapiens)
# Construct: made in house; host or cells: Spodoptera frugiperda (Sf-9) cells, recombinant baculovirus (pFastBac1)
# assay-comment: Recombinant human LTA4 hydrolase assay for LTA4 hydrolase inhibitor activity
# Type: biochemical
# condition-label: rhLTA4H, LTA4 substrate, LTB4 by immunoassay; single determination or average; read-out: IC50
pIC50: −log10 of the molar value.
Entry flag: Met if pIC50 reaches 7; Not met if it does not.

(Q) Identify whether the reported pIC50 of the following compound is 7 or greater: O=C(Cc1cccs1)N1CCN(Cc2ccc(Oc3nc4nccnc4s3)cc2)CC1
(A) Not met

(Q) Record c1ccc(OC2CCN(CCOc3ccc(Oc4nc5ncccc5s4)cc3)CC2)nc1 ; criterion: pIC50 no lower than 7. Met?
(A) Met

(Q) # check: pIC50 of c1ccc2c(c1)CCN(CCOc1ccc(Oc3nc4ncccc4s3)cc1)C2 is greater than or equal to 7
(A) Met

(Q) # bool: pIC50 of NC(=O)N[C@H]1C[C@H]2CC[C@@H](C1)N2CCc1ccc(Oc2nc3ncccc3s2)cc1 >= 7
(A) Met

(Q) Threshold query (pIC50 >= 7) on CN1CCN(C(=O)C2CCN(Cc3ccc(Oc4nc5ccncc5s4)cc3)CC2)CC1
(A) Not met

(Q) Could you please find out whether CC(=O)N1C[C@@H]2C[C@H]1CN2CCc1ccc(Oc2nc3ncccc3s2)cc1 has pIC50 that meets 7 or exceeds it?
(A) Met

====

# experimental-system: recombinant human LTA4 hydrolase (rhLTA4H) (Homo sapiens)
# Construct: made in house; host or cells: Spodoptera frugiperda (Sf-9) cells, recombinant baculovirus (pFastBac1)
# assay-comment: Recombinant human LTA4 hydrolase assay for LTA4 hydrolase inhibitor activity
# Assay type: biochemical
# condition-label: rhLTA4H, LTA4 substrate, LTB4 by immunoassay; single determination or average; read-out: IC50
parameter: IC50 (nM)
Write the answer as a number in nM, unit excluded.

(Q) Give the reported IC50 for CC(=O)N1C[C@H]2CC[C@@H](C1)N2CCOc1ccc(Oc2nc3ncccc3s2)cc1 [Example 141] (system: recombinant human LTA4 hydrolase (rhLTA4H) (Homo sapiens)).
(A) 2

(Q) Short answer please: IC50, recombinant human LTA4 hydrolase (rhLTA4H) (Homo sapiens), entry CC(=O)N[C@H]1C[C@H]2CC[C@@H](C1)N2CCOc1ccc(Oc2nc3ncccc3s2)cc1 [Example 16]
(A) 3

(Q) // lookup IC50 | system=recombinant human LTA4 hydrolase (rhLTA4H) (Homo sapiens) | key= c1ccc(SC2CCN(CCOc3ccc(Oc4nc5ncccc5s4)cc3)CC2)cc1 [Example 3]
(A) 70

(Q) Given the entry CC(=O)N1C[C@@H]2C[C@H]1CN2CCOc1ccc(Oc2nc3ncccc3s2)cc1 [Example 14] , what IC50 was observed with recombinant human LTA4 hydrolase (rhLTA4H) (Homo sapiens)?
(A) 7.5

(Q) Give the reported IC50 for CC(=O)N1CC2CN(CCOc3ccc(Oc4nc5ncccc5s4)cc3)CC2C1 (centres unmarked) [Example 18] (system: recombinant human LTA4 hydrolase (rhLTA4H) (Homo sapiens)).
(A) 5.5

(Q) What measured IC50 is associated with Cc1cnc2nc(Oc3ccc(OCCN4CCC(NC(=O)C(C)C)CC4)cc3)sc2c1 [Example 140] on recombinant human LTA4 hydrolase (rhLTA4H) (Homo sapiens)?
(A) 138

(Q) What IC50 appears in the records for this compound with recombinant human LTA4 hydrolase (rhLTA4H) (Homo sapiens)? Cc1ccnc2nc(Oc3ccc(CN4[C@@H]5CC[C@H]4CN(S(C)(=O)=O)C5)cc3)sc12 [Example 205]
(A) 49

(Q) Any idea what IC50 came out for c1cnc2nc(Oc3ccc(OCCN4CCOCC4)cc3)sc2c1 [Example 11] on recombinant human LTA4 hydrolase (rhLTA4H) (Homo sapiens)?
(A) 98

====

# experimental-system: recombinant human LTA4 hydrolase (rhLTA4H) (Homo sapiens, UniProt P09960)
# Construct: made in house; host or cells: Spodoptera frugiperda (Sf-9) cells, recombinant baculovirus (pFastBac1)
# assay-comment: Recombinant human LTA4 hydrolase assay for LTA4 hydrolase inhibitor activity
# Format: biochemical
# condition-label: rhLTA4H, LTA4 substrate, LTB4 by immunoassay; single determination or average; read-out: IC50
# Experimental: Assay 1: Recombinant Human LTA4 Hydrolase Assay for LTA4 Hydrolase Inhibitor Activity Compounds of the present invention were tested for LTA4 hydrolase inhibitor activity against recombinant human LTA4 hydrolase (rhLTA4H). Vectors were prepared and used to express rhLTA4H essentially as follows: LTA4 hydrolase encoding DNA was amplified by polymerase chain reaction (PCR) using a human placental cDNA library as a template. […]
Would you mind telling me the reported IC50 of each entry?
Provide only the numeric value, understood in nM.

(Q) Request the reported IC50 associated with OC1(c2ccc(Cl)cc2)CCN(CCOc2ccc(Oc3nc4ncccc4s3)cc2)CC1 [Example 30]
(A) 30

(Q) # IC50 lookup, item CC(=O)N1[C@@H]2CC[C@H]1C[C@@H](NCCOc1ccc(Oc3nc4ncccc4s3)cc1)C2 [Example 159]
(A) 9

(Q) Look at this compound and give its reported IC50. CN1CCN(Cc2ccc(Oc3nc4cnccc4s3)cc2)CC1=O [Example 224]
(A) 4850

(Q) Need IC50 of NC(=O)N1C[C@H]2C[C@@H]1CN2CCOc1ccc(Oc2nc3ncccc3s2)cc1 [Example 268] , thanks.
(A) 32
